Reported IC50, human PTPN2 (1-387) (Homo sapiens (Human)).
assay metric: IC50 (nM)

Previously resolved entries follow.
[
  {
    "compound": "NC(=O)c1cc(OCc2ccc(F)c(C(F)(F)F)c2)c2sc(C(F)(F)P(=O)(O)O)c(Br)c2c1",
    "recorded value": 104
  },
  {
    "compound": "CN(C(=O)c1ccc2sc(C(F)(F)P(=O)(O)O)c(Br)c2c1)c1cccc(Oc2ccccc2)c1",
    "recorded value": 6140
  },
  {
    "compound": "COc1ccc2[nH]cc(CCNC(=O)c3ccc4sc(C(F)(F)P(=O)(O)O)c(Br)c4c3)c2c1",
    "recorded value": 2770
  },
  {
    "compound": "O=C(N[C@@H]1CCCC[C@H]1OCc1ccccc1)c1ccc2sc(C(F)(F)P(=O)(O)O)c(Br)c2c1",
    "recorded value": 2700
  }
]

P. O=C(NCc1c[nH]cn1)c1ccc2sc(C(F)(F)P(=O)(O)O)c(Br)c2c1
Q. Cc1cc(C)c(COc2cc(C(N)=O)cc3c(Br)c(C(F)(F)P(=O)(O)O)sc23)c(C)c1
R. O=C(NC1CC1(F)F)c1cc(OCCCC(F)(F)F)c2sc(C(F)(F)P(=O)(O)O)c(Br)c2c1 (centres unmarked)
S. O=P(O)(O)C(F)(F)c1sc2c(OCCCC(F)(F)F)cccc2c1Br
*Q* # rank by IC50, ascending (min first) When ranking, write the labels in the order the request describes.
*A* R, S, Q, P
(R: 9.79 nM, S: 225 nM, Q: 364 nM, P: 2050 nM)

----------
# pIC50 measurements, system: human PTPN2 (1-387) (Homo sapiens (Human))
# Sequence (P17706 other isoform, or with tags, fused parts or gaps): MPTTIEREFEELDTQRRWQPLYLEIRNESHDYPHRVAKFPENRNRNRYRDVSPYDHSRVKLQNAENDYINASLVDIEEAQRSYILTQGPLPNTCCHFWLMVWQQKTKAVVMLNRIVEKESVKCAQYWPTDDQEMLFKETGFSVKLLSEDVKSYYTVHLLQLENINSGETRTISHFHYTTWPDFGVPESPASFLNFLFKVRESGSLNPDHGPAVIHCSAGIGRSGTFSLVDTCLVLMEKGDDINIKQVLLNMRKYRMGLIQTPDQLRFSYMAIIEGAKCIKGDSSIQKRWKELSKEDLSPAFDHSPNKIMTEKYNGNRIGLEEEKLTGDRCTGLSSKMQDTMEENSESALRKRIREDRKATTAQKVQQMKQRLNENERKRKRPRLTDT
pIC50: −log10 of the molar value.
assay metric: pIC50

I. CCC(COCc1ccccc1)NC(=O)c1ccc2sc(C(F)(F)P(=O)(O)O)c(Br)c2c1 (centres unmarked)
II. O=P(O)(O)C(F)(F)c1sc2c(OCCCC(F)(F)F)cc(-c3cn[nH]c3)cc2c1Br
*Q* Look at I and II . Which one has the lower recorded pIC50 number? # answer = label of selected item
*A* I

P. NC(=O)c1cc(OCc2ccc(-c3ccncc3)cc2)c2sc(C(F)(F)P(=O)(O)O)c(Br)c2c1
Q. Cc1c(NC(=O)c2ccc3sc(C(F)(F)P(=O)(O)O)c(Br)c3c2)cccc1C(=O)N1CCCC1
*Q* Returns the identifier with the smallest measured pIC50 among P and Q . Indicate which entry you chose by stating its label.
*A* Q

----------
The following compounds have recorded IC50 on human PTPN2 (1-387) (Homo sapiens (Human)).
assay metric: IC50 (nM)

Check out these entries, answers already filled in.
[
  {
    "compound": "O=C(NCc1cn2ccccc2n1)c1ccc2sc(C(F)(F)P(=O)(O)O)c(Br)c2c1",
    "IC50 (nM)": 1870
  },
  {
    "compound": "NC(=O)COc1cc(C(N)=O)cc2c(Br)c(C(F)(F)P(=O)(O)O)sc12",
    "IC50 (nM)": 1460
  },
  {
    "compound": "O=C(Nc1cccnc1Oc1ccccc1)c1ccc2sc(C(F)(F)P(=O)(O)O)c(Br)c2c1",
    "IC50 (nM)": 9280
  }
]

I. O=C(NC(c1cccnc1)C(F)(F)F)c1ccc2sc(C(F)(F)P(=O)(O)O)c(Br)c2c1 (single isomer, unassigned) [Compound 222b]
II. NC(=O)c1cc(OCC2CCC(F)(F)CC2)c2sc(C(F)(F)P(=O)(O)O)c(Br)c2c1
*Q* Hi! Which is lower in terms of IC50, the first one I or the second one II ? Mark your answer with the label of the selected entry.
*A* II
(II: 84.6 nM, I: 771 nM)
